Reference for the values: the supplement of paper PMC10567573

B1: PSD2 (parent)
chain: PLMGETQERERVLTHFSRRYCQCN

variants of: B1; assay: protein stability index of a GFP-peptide fusion (GPS, HEK-293T) (PSI 1-6); higher = more stable; conditions: c terminus: a fixed tail appended;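 note: lentivirally expressed fusions sorted by FACS into six bins by GFP to DsRed ratio, PSI derived from sequencing read proportions per bin multiplied by bin number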
Decision: protein stability index compared against 3; not below it gives criterion met, below it gives criterion not met.

Please review the entries below; each comes with its answer.
mutation.notation	label.class
E8V	criterion not met
R18V	criterion not met
P1H	criterion not met
Q7A	criterion met
E10N	criterion not met
V12D	criterion not met
C21L	criterion met
E10T	criterion not met

Challenge: Given the entry T14H , answer whether its protein stability index meets or surpasses 3.
Response given: criterion not met

Challenge: Identify whether the reported protein stability index of the following variant is 3 or greater: M3E
Response given: criterion met

Challenge: Identify whether the reported protein stability index of the following variant is 3 or greater: E10H
Response given: criterion not met

Challenge: Does E5A have a reported protein stability index of at least 3?
Response given: criterion not met

Challenge: API: above_or_equal(metric=protein stability index, cutoff=3) for item M3G
Response given: criterion met

Challenge: Evaluate R18M : protein stability index at minimum 3?
Response given: criterion not met

Challenge: Given R9L , state whether its protein stability index is at least 3.
Response given: criterion not met
